# TARGET: human kappa opioid receptor (Homo sapiens, UniProt P41145)
# Construct: expressed in transfected cells; host or cells: Chinese hamster ovary cells (CHO-hKOR), membranes
# Sequence (P41145 whole entry): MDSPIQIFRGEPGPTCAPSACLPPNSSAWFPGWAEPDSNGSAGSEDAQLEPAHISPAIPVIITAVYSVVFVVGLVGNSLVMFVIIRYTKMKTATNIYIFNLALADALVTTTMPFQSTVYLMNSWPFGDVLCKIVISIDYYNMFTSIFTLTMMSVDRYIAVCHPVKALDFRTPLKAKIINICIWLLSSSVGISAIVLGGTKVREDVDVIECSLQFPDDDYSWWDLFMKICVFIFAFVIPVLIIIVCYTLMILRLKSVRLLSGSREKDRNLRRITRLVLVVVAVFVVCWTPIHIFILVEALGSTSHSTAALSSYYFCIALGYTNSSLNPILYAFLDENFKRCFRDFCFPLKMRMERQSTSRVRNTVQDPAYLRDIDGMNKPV
# ASSAY SUMMARY: biochemical
Note that class boundaries on EC50 are interval 1: < 90 nM; interval 2: ≥ 90 nM and < 200 nM; interval 3: ≥ 200 nM

{"COMPOUND": "CCCC(=O)O[C@H]1C[C@@H](C(=O)OC)[C@]2(C)CC[C@H]3C(=O)O[C@H](c4ccoc4)C[C@]3(C)C2C1=O (stereo partly drawn)", "DISCRETE LABEL": "interval 1"}

INPUT: Category of COC(=O)[C@@H]1C[C@H](OC)C(=O)C2[C@@]1(C)CC[C@H]1C(=O)O[C@H](c3ccoc3)C[C@]21C (stereo partly drawn) :
OUTPUT: interval 3

INPUT: Category of CCCCO[C@H]1C[C@@H](C(=O)OC)[C@]2(C)CC[C@H]3C(=O)O[C@H](c4ccoc4)C[C@]3(C)C2C1=O (stereo partly drawn) :
OUTPUT: interval 2

INPUT: Category of CNC1CC(C(=O)OC)C2(C)CCC3C(=O)OC(c4ccoc4)CC3(C)C2C1=O (stereo not drawn) [Compound 208a, 2-(N-methyl)-salvinorin] :
OUTPUT: interval 3

INPUT: Category of CCOC(=O)O[C@H]1C[C@@H](C(=O)OC)[C@]2(C)CC[C@H]3C(=O)O[C@H](c4ccoc4)C[C@]3(C)C2C1=O (stereo partly drawn) :
OUTPUT: interval 3

INPUT: Category of COC(=O)[C@@H]1C[C@@H](N)C(=O)C2[C@@]1(C)CC[C@H]1C(=O)O[C@H](c3ccoc3)C[C@]21C (stereo partly drawn) [Compound 207b, 2-epi-aminosalvinorin] :
OUTPUT: interval 3
